Recorded measurements of pIC50, one per entry
target: Recombinant human JAK2 catalytic domain (Homo sapiens (Human)); assay: JAK2 inhibition assay; format: biochemical; conditions: semi-quantitative score
Sequence (O60674 808-1132): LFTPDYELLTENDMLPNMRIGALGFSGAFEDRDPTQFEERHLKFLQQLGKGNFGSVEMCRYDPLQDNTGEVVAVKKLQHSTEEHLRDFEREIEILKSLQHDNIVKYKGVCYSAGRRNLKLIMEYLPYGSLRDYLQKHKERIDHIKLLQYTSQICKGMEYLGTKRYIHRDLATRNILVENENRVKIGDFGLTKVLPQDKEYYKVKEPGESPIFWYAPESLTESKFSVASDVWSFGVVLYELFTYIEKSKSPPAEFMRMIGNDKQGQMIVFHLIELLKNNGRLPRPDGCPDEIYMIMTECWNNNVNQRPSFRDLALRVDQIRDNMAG
pIC50: −log10 of the molar value.

stdin: Recorded pIC50 for "O=C(Nc1nc2cccc(-c3ccc(CN4CC(N5CCOCC5)C4)cc3)n2n1)C1CC1" , please?
stdout: < 6.00

stdin: So what does the record say about pIC50 for "O=C(Nc1nc2cccc(-c3ccc(OCc4ncon4)cc3)n2n1)C1CC1" ?
stdout: > 7.00

stdin: Consider the compound shown here: CN(C)C1CCN(Cc2ccc(-c3cccc4nc(NC(=O)C5CC5)nn34)cc2)C1 (centres unmarked) What is its recorded pIC50?
stdout: 6.30 to 7.00

stdin: Look at this compound and give its reported pIC50. "O=C(Nc1nc2cccc(-c3ccc(C(=O)N4CC(N5CCOCC5)C4)cc3)n2n1)C1CC1"
stdout: < 6.00

stdin: If you can, please state the reported pIC50 value of "O=C(Nc1ccc(-c2cccc3nc(NC(=O)C4CC4)nn23)cc1)c1ccc(C(F)(F)F)cc1" .
stdout: 6.30 to 7.00

----------
assay: Microsomal stability, rat liver microsomes; format: in vitro ADME; details: percentage of compound remaining after 60 minutes, 3 μM compound
readout-name: Microsomal Stability Rat (%)

In the examples that follow, each entry is paired with its recorded Microsomal Stability Rat (%).
compound="O=C(Nc1nc2cccc(-c3ccc(OCCn4cccn4)cc3)n2n1)C1CC1 [Compound 98]" readout_name="Microsomal Stability Rat (%)" result="** (** 26-50)"
compound="O=C(Nc1ccncc1)c1ccc(-c2cccc3nc(NC(=O)C4CC4)nn23)cc1 [Compound 25]" readout_name="Microsomal Stability Rat (%)" result="* (* 0-25)"
compound="COc1ccc(NC(=O)c2ccc(-c3cccc4nc(NC(=O)C5CC5)nn34)cc2)cn1 [Compound 203]" readout_name="Microsomal Stability Rat (%)" result="*** (*** 51-75)"
compound="CC1CCCCN1C(=O)c1ccc(-c2cccc3nc(NC(=O)C4CC4)nn23)cc1 (stereo not drawn) [Compound 144]" readout_name="Microsomal Stability Rat (%)" result="* (* 0-25)"
compound="O=C(Nc1nc2cccc(-c3ccc(CC(=O)N4CCCCC4)cc3)n2n1)C1CC1 [Compound 266]" readout_name="Microsomal Stability Rat (%)" result="**** (**** 76-100)"

stdin: Query: Microsomal Stability Rat (%); subject: Cc1ccc(COc2ccc(-c3cccc4nc(NC(=O)C5CC5)nn34)cc2)cn1 [Compound 197]
stdout: *** (*** 51-75)

stdin: # lookup: Microsomal Stability Rat (%) of O=C(Nc1nc2cccc(-c3ccc(C(=O)N4CCC(F)(F)CC4)cc3)n2n1)C1CC1 [Compound 168]
stdout: *** (*** 51-75)

stdin: Request the reported Microsomal Stability Rat (%) associated with O=C(N[C@H]1CCN(Cc2ccccc2)C1)c1ccc(-c2cccc3nc(NC(=O)C4CC4)nn23)cc1 [Compound 119]
stdout: ** (** 26-50)

----------
Listed compounds paired with reported pIC50
molecular target: Recombinant human JAK2 catalytic domain (Homo sapiens (Human)); assay: JAK2 inhibition assay; type: biochemical; conditions: semi-quantitative score
pIC50: −log10 of the molar value.

Example compounds with recorded pIC50:
smiles_code=N#Cc1ccc(COC2CN(C(=O)c3ccc(-c4cccc5nc(NC(=O)C6CC6)nn45)cc3)C2)cc1 result="6.30 to 7.00"
smiles_code=NC(=O)c1cccc(OCc2ccc(-c3cccc4nc(NC(=O)C5CC5)nn34)cc2)c1 result="6.30 to 7.00"
smiles_code=O=C(Nc1nc2cccc(-c3ccc(C(=O)N4CCCC4)cc3)n2n1)C1CC1 result="6.30 to 7.00"

// switching to the query compound
stdin: // returns reported pIC50 for input "O=C(Nc1nc2cccc(-c3ccc(CNc4ncc(F)cc4F)cc3)n2n1)C1CC1"
stdout: > 7.00

----------
Test: Microsomal stability, human liver microsomes
Type: in vitro ADME
Conditions: percentage of compound remaining after 60 minutes, 3 μM compound
Procedure: 40 μL of deionised water was added to a well of a polypropylene Matrix 2D barcode labelled storage tube (Thermo Scientific) and pre-incubated at 37° C. […] The samples were analyzed on LCMS with a flow rate of 1 mL/min. […] The percentage remaining after 1 hour incubation was calculated from time 0 and was calculated as the percentage remaining. The data on microsomal stability are expressed as a percentage of the total amount of compound remaining after 60 minutes.
readout-name: Microsomal Stability Human (%)

compound="O=C(Nc1ccccc1)c1ccc(-c2cccc3nc(NC(=O)C4CC4)nn23)cc1 [Compound 43]" readout_name="Microsomal Stability Human (%)" result="**** (**** 76-100)"
compound="Cn1cnc(COc2ccc(-c3cccc4nc(NC(=O)C5CC5)nn34)cc2)n1 [Compound 199]" readout_name="Microsomal Stability Human (%)" result="**** (**** 76-100)"
compound="COc1c(F)ccc(NCc2ccc(-c3cccc4nc(NC(=O)C5CC5)nn34)cc2)c1F [Compound 245]" readout_name="Microsomal Stability Human (%)" result="* (* 0-25)"
compound="O=C(Nc1nc2cccc(-c3ccc(NCc4ccccc4)nc3)n2n1)C1CC1 [Compound 104]" readout_name="Microsomal Stability Human (%)" result="* (* 0-25)"

----------
Entries and their pEC50 values follow.
test system: JAK-STAT signalling in HeLa cells; experiment: JAK-STAT signalling assay (OSM-triggered pSTAT1(2)-luciferase reporter in HeLa cells); type: cell-based; settings: Homo sapiens; HeLa cells, OSM-triggered pSTAT1(2)-luciferase reporter; read-out: STAT signalling EC50
pEC50: −log10 of the molar value.

Please review the entries below; each comes with its answer.
molecule="O=C(NCCOc1ccccc1)c1ccc(-c2cccc3nc(NC(=O)C4CC4)nn23)cc1 [Compound 60]" result="6.30 to 7.00"
molecule="O=C(Nc1nc2cccc(-c3ccc(NCc4ccccc4)cc3)n2n1)C1CC1 [Compound 72]" result="< 6.00"
molecule="NC(=O)c1ccccc1NCc1ccc(-c2cccc3nc(NC(=O)C4CC4)nn23)cc1 [Compound 306]" result="6.30 to 7.00"
molecule="O=C(Nc1nc2cccc(-c3ccc(C(=O)N4CC(N5CCOCC5)C4)cc3)n2n1)C1CC1 [Compound 326]" result="< 6.00"
molecule="O=C(Nc1nc2cccc(-c3ccc(CNc4ccc(Cl)cc4F)cc3)n2n1)C1CC1 [Compound 212]" result="6.30 to 7.00"
molecule="O=C(Nc1nc2cccc(-c3ccc(NS(=O)(=O)CCOc4ccccc4)cc3)n2n1)C1CC1 [Compound 122]" result="< 6.00"

stdin: Requested field: pEC50. Item: O=C(Nc1nc2cccc(-c3ccc(CC(=O)N4CC(F)(F)C4)cc3)n2n1)C1CC1 [Compound 317]
stdout: 6.00 to 6.30

stdin: Consider the molecule shown here: O=C(Nc1nc2cccc(-c3ccc(C(=O)N4CCC(F)(F)C4)cc3)n2n1)C1CC1 [Compound 271] What is its recorded pEC50?
stdout: 6.30 to 7.00

----------
Test system: JAK-STAT signalling in HeLa cells
Assay: JAK-STAT signalling assay (OSM-triggered pSTAT1(2)-luciferase reporter in HeLa cells)
Assay type: cell-based
Details: Homo sapiens; HeLa cells, OSM-triggered pSTAT1(2)-luciferase reporter; read-out: STAT signalling EC50
Experimental: HeLa cells were maintained in Dulbecco's Modified Eagle's Medium (DMEM) containing 10% heat inactivated fetal calf serum, 100 U/mL penicillin and 100 μg/mL streptomycin. HeLa cells were used at 70% confluence for transfection. […] 40 μL of cell lysate was used to read β-galactosidase activity by adding 180 μL βGal solution (30 μl ONPG 4 mg/mL+150 μL β-Galactosidase buffer (0.06 M Na2HPO4, 0.04 M NaH2PO4, 1 mM MgCl2)) for 20 min. […]
pEC50: −log10 of the molar value.
readout-name: pEC50

Consider the reported pEC50 for these compounds:
compound=O=C(NCCOc1ccccc1)c1ccc(-c2cccc3nc(NC(=O)C4CC4)nn23)c(F)c1 result="< 6.00"
compound=O=C(Nc1nc2cccc(-c3ccc(OCCOc4ccc(F)cc4)cc3)n2n1)C1CC1 result="< 6.00"
compound=CC(=O)Nc1nc2cccc(-c3ccc(OCc4ccccc4)cc3)n2n1 result="< 6.00"
compound=CC(=O)N(Cc1cccnc1)c1ccc(-c2cccc3nc(NC(=O)C4CC4)nn23)cc1 result="< 6.00"
compound=N#CC1CN(c2ccc(-c3cccc4nc(NC(=O)C5CC5)nn34)cc2)C1 result="< 6.00"
compound=O=C(Nc1nc2cccc(-c3ccc(NS(=O)(=O)CCc4cccc(F)c4)cc3)n2n1)C1CC1 result="< 6.00"

stdin: Request the reported pEC50 associated with CC(Oc1ccc(-c2cccc3nc(NC(=O)C4CC4)nn23)cc1)c1ccccn1 (centres unmarked)
stdout: 6.30 to 7.00

stdin: Quick one: pEC50 for O=C(Nc1nc2cccc(-c3ccc(CN4CCOC(c5ccccc5)C4)cc3)n2n1)C1CC1 (centres unmarked) ?
stdout: < 6.00

stdin: Recorded pEC50 for "O=C(Nc1nc2cccc(-c3ccc4c(ccn4C(=O)CCc4ccccc4)c3)n2n1)C1CC1" , please?
stdout: < 6.00

stdin: Which pEC50 reading was recorded for the compound "CC(=O)NC1CN(C(=O)c2ccc(-c3cccc4nc(NC(=O)C5CC5)nn34)cc2)C1" ?
stdout: < 6.00

stdin: What value of measured pEC50 is listed for "O=C(Nc1nc2cccc(-c3ccc(OCc4ccc(-c5cn[nH]c5)nc4)cc3)n2n1)C1CC1" ?
stdout: < 6.00

stdin: Item under review: "N#Cc1ccc(COc2ccc(-c3cccc4nc(NC(=O)C5CC5)nn34)cc2)cn1" . Reported pEC50?
stdout: 6.30 to 7.00

stdin: Quick one: pEC50 of "N#CC1CCN(Cc2ccc(-c3cccc4nc(NC(=O)C5CC5)nn34)cc2)CC1" ?
stdout: < 6.00

stdin: Quick check: pEC50 of "O=C(Nc1nc2cccc(-c3ccc(C(=O)N4CCCNCC4)cc3)n2n1)C1CC1" ?
stdout: < 6.00

stdin: Sample "N#CCc1ccc(OCc2ccc(-c3cccc4nc(NC(=O)C5CC5)nn34)cc2)cc1" — what was its pEC50?
stdout: 6.30 to 7.00

stdin: GET /values?readout=pEC50&item= NC(=O)C1CCCCN1C(=O)c1ccc(-c2cccc3nc(NC(=O)C4CC4)nn23)cc1 (centres unmarked)
stdout: < 6.00

stdin: Dear colleague, I am looking for the recorded pEC50 of the following compound: "CN1CCN(c2ccc(NCc3ccc(-c4cccc5nc(NC(=O)C6CC6)nn45)cc3)cn2)CC1"
stdout: < 6.00
